Catalogue of compounds with associated Value
# Subject of test: PARP-1 (Homo sapiens, UniProt P09874)
# Sequence (P09874 whole entry): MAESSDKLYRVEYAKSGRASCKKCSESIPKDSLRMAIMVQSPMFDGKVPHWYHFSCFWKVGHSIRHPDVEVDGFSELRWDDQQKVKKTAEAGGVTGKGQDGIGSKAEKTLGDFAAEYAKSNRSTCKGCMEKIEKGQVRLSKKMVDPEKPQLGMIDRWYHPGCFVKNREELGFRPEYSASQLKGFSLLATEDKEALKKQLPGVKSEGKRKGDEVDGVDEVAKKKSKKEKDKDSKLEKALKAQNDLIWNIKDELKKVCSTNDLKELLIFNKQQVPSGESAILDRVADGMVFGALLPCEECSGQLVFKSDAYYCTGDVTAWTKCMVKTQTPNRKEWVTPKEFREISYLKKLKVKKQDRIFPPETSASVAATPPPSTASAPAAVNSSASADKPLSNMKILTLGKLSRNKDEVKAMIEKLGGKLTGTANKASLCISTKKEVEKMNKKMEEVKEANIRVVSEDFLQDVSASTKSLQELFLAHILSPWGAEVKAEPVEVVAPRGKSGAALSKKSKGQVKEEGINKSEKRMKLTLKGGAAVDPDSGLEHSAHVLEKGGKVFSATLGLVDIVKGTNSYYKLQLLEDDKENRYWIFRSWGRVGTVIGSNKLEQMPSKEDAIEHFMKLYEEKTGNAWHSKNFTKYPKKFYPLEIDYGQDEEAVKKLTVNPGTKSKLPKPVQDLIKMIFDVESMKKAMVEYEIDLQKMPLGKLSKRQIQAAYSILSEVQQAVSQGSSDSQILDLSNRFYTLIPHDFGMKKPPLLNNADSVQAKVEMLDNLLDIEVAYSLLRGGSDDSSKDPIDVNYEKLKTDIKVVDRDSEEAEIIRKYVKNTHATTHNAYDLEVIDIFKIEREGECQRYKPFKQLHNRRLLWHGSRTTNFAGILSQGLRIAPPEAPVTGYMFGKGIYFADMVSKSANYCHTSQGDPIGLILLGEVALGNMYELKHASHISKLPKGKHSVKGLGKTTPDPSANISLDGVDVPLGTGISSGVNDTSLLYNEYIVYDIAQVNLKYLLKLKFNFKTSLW
# Assay details: PARP-1 activation screening assay, 384-well ELISA plate coated with histone H4
# Applied conditions: pilot screen of ICCB Known Bioactives library; pADPr ELISA signal (absorbance at 650 or 450 nm as indicator of PARP-1 activity)
Quantity measured: Value

>>> readout_value("CNc1ccc2oc(C[C@H]3O[C@@]4(CC[C@H]3C)O[C@H]([C@H](C)C(=O)c3ccc[nH]3)[C@H](C)C[C@H]4C)nc2c1C(=O)O")
1.22
>>> readout_value("CC(C)Cn1c(=O)n(C)c(=O)c2[nH]cnc21")
0.94
>>> readout_value("N#C/C(=C\\c1ccc(O)c(O)c1)C(N)=S")
1.28
>>> readout_value("COc1cccc(-c2cc(=O)c3ccccc3o2)c1N")
0.69

---

# Subject of test: PARP-1 (Homo sapiens)
# Assay details: PARP-1 activation screening assay, 384-well ELISA plate coated with histone H4
# Applied conditions: pilot screen of ICCB Known Bioactives library; pADPr ELISA signal (absorbance at 650 or 450 nm as indicator of PARP-1 activity)
Quantity measured: Value

>>> readout_value("C=C1[C@@H](C)[C@H]2[C@H](Cc3ccccc3)NC(=O)[C@]23OC(=O)/C=C/[C@H](O)CCC[C@@H](C)C/C=C/[C@H]3[C@@H]1O")
2.03
>>> readout_value("CN(C)C(=O)C(CCN1CCC(O)(c2ccc(Cl)cc2)CC1)(c1ccccc1)c1ccccc1 [Loperamide]")
2.34
>>> readout_value("O=c1c(O)c(-c2ccc(O)c(O)c2)oc2cc(O)cc(O)c12")
0.18
>>> readout_value("NCCNS(=O)(=O)c1cccc2cnccc12")
0.05
>>> readout_value("CC[N+](C)(CC)CCC[n+]1c(-c2ccccc2)c2cc(N)ccc2c2ccc(N)cc21.[I-].[I-] [Propidium iodide]")
0.18
>>> readout_value("[Cl-].c1ccc2c(c1)[I+]c1ccccc1-2")
0.20
>>> readout_value("O=c1[nH]c2ccccc2c2ccccc12")
0.05
>>> readout_value("CN(C)C[C@H](O)Cn1c2ccc(Br)cc2c2cc(Br)ccc21 (racemic)")
1.90
>>> readout_value("CCOC(=O)CN1C(=O)CC(C[C@@H](O)[C@@H]2C[C@@H](C)C[C@H](C)C2=O)CC1=O [Cycloheximide-N-ethylethanoate]")
1.89
>>> readout_value("C=C1O[C@@](CO)(n2cnc3c(N)ncnc32)[C@H](O)[C@@H]1O")
2.00
>>> readout_value("Br.NC1CCc2cc(O)c(O)cc2C1 (stereo not drawn)")
0.50
>>> readout_value("CC1(C)Oc2ccc(C#N)cc2[C@@H](OC2=CC(=O)CC2)[C@@H]1O")
2.01

Source of measurements: patent US10550108B2
